Target: T1, cynomolgus monkey PCSK9 (cynomolgus monkey, UniProt A8T662 31-692 (Macaca nemestrina entry), limits assumed)
T1 construct: also called Cyno PCSK9; cynoPCSK9
T1 sequence (A8T662 31-692 limits assumed): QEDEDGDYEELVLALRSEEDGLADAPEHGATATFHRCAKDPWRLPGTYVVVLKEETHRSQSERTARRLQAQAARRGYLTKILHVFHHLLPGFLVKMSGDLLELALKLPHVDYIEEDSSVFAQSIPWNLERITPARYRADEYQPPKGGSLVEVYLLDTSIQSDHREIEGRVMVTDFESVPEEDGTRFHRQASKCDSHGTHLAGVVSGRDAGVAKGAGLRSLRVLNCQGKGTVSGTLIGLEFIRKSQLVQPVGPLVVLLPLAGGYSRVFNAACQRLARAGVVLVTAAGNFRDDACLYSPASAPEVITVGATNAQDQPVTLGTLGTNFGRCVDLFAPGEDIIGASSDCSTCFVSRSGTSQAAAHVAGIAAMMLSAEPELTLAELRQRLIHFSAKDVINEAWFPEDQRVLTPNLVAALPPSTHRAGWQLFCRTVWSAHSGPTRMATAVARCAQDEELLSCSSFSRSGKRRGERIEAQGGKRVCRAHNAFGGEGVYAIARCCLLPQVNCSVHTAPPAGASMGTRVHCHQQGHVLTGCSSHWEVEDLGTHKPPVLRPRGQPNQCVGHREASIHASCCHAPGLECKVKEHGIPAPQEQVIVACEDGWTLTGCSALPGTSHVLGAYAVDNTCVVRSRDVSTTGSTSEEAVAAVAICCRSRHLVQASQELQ
Experiment: ProteOn SPR, captured antibody, pH 5.8;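 note: antibodies captured on a GLC chip coated with anti-human Fc, rate constants from a 1:1 Langmuir fit of the sensorgrams, Kd derived from the fitted rates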
Reported kon values for the following binders.
Please reply with the bare figure in M⁻¹ s⁻¹ and do not write the unit itself.

Give the reported value of kon for this record: CL-274698 (antibody, V domains shown, Human antibody with a kappa light chain, derived from a PCSK9 knockout mouse) VH: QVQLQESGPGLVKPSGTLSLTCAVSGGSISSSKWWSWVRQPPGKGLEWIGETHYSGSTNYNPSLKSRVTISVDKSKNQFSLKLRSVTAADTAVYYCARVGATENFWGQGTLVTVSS VL: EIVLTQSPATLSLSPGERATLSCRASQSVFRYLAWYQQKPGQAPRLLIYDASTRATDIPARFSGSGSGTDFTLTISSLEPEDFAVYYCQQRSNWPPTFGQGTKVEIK
1.26e+06

Give the reported value of kon for this record: CL-148219 (antibody, V domains shown, NLT motif in heavy chain framework 3 confirmed N-glycosylated by mass spectrometry, Human antibody, captured through anti-human Fc in the SPR assay) VH: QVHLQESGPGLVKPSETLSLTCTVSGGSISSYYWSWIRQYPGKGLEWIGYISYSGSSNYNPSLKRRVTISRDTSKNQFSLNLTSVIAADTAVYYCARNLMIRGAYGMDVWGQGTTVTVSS VL: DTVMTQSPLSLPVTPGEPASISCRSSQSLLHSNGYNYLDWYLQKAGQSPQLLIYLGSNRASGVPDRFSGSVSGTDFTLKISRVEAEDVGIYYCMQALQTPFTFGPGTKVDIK
975000

Others:
Give the reported value of kon for this record: CL-148219 QLT mutant (antibody, V domains shown) VH: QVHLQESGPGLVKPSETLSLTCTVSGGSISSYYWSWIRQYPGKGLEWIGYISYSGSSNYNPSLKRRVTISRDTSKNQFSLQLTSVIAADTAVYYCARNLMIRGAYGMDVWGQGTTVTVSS VL: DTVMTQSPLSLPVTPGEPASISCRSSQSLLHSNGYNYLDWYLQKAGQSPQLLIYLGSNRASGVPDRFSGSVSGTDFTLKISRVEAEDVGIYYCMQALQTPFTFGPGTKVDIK
584000

Give the reported value of kon for this record: CL-148489 (antibody, V domains shown, Human antibody with a kappa light chain) VH: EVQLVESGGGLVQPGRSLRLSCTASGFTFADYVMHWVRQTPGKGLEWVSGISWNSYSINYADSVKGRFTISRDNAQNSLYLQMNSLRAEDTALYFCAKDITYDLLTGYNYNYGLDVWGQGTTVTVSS VL: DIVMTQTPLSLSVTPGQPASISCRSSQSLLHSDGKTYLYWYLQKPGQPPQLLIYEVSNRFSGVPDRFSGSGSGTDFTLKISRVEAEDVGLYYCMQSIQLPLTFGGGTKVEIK
1.31e+06
